Values were extracted from PubChem BioAssay (NCI).

- Test system: RPMI-8226 leukemia
- assay-comment: NCI-60 one-dose screen, 48 h
- reported-conditions: 10 µM unless noted
The panel holds about 83,000 compounds, 20% with a hit somewhere; the sample as a whole holds those more often. Activity calls are given as the source filed them. How the source made its calls: active means growth percent below 10; inactive means the rest.
Your answer must be one of the following: active, inactive

A selection of reference data follows.
CCN(CC)CCC(=O)Nc1ccc(Cn2nnc3c2C(=O)c2nnn(Cc4ccc(NC(=O)CCN(CC)CC)cc4)c2C3=O)cc1
active
COc1cc(OC)c(/C=C/C(=O)c2c(OC)cc(OC)cc2OC)c(OC)c1
active

Task: Give the logged outcome of this assay for the following compound: O=C1c2ccccc2-c2nccc3cc(Cl)nc1c23
Output: active

Task: What do we get for O=C(CN1CCN(c2cc3c(cc2F)c(=O)c(C(=O)O)cn3C2CC2)CC1)Nc1cc(=O)[nH]c(=O)[nH]1 ?
Output: inactive

Task: What do we get for Cc1cc(Cl)ccc1Nc1nc(C(F)(F)F)ccc1C(=O)N/N=C/c1ccc(F)cc1 ?
Output: active

Task: What do we get for CNCc1cccc2c1OCCOCCOCCN(C)S(=O)(=O)c1ccc(cc1)-c1cnc(N)c(n1)C(=O)N2 ?
Output: inactive

Task: What do we get for CCOC(=O)C(C#N)C1CCCCC1 (centres undefined) ?
Output: inactive

Task: What do we get for O=c1c2cccc3c(NC4CCCCC4)ccc(c32)c2nc3ccccc3n12 ?
Output: inactive

Task: What do we get for C/C(=C(/c1ccc(O)cc1)c1ccc(OCCN(C)C)cc1)c1ccccc1 ?
Output: inactive

Task: What do we get for CC(C)[C@@H]1CC[C@]2(C(=O)NCCCCN=C(N)N)CC[C@]3(C)[C@H](CC[C@@H]4[C@@]5(C)CCC(=O)C(C)(C)[C@@H]5CC[C@]43C)[C@@H]12 ?
Output: inactive

* * *

- Test system: LOX IMVI melanoma
- assay-comment: NCI-60 one-dose screen, 48 h (100 = growth as untreated, 0 = no growth, -100 = all killed)
- reported-conditions: 10 µM unless noted
This is part of a sample that, as a whole, favours compounds with a hit. Of some 83,000 tested, about 20% had one in any assay.
Class boundaries, taken from values of growth, are as follows: category 1 = under -20%, category 2 = from -20% up to 20%, category 3 = 20% and over

CC(=O)Oc1ccc(Nc2c3ccccc3nc3ccccc23)cc1
category 1

Task: Hi there! Could you help me figure out the category for CCN(CC)CCCNc1cccc2c(SCc3ccccc3)ccnc12 please?
Output: category 3

Task: What do we get for COc1cccc(-n2cc(-c3nc(Nc4cc(C)[nH]n4)c4ccccc4n3)nn2)c1 ?
Output: category 3

Task: What do we get for C=C1CC2(OC1=O)C(=O)N(CCCCCCCN1C(=O)C3(CC(=C)C(=O)O3)c3ccccc31)c1ccccc12 (centres undefined) ?
Output: category 1

Task: What do we get for COc1ccc(-c2cn3c(-c4ccc(OC)cc4)cnc3c(Oc3ccc4c(C)cc(=O)oc4c3)n2)cc1 ?
Output: category 2

Task: What do we get for O=C(CCCCN1CCOCC1)Nc1ccc(Cn2nnc3c2C(=O)c2nnn(Cc4ccc(NC(=O)CCCCN5CCOCC5)cc4)c2C3=O)cc1 ?
Output: category 1

* * *

- Test system: CCRF-CEM leukemia
- assay-comment: NCI-60 one-dose screen, 48 h
- reported-conditions: 10 µM unless noted
This is part of a sample that, as a whole, favours compounds with a hit. Of some 83,000 tested, about 20% had one in any assay. Calls of active or inactive are those of the source. The calls were made as follows: active = growth percent below 10; inactive = the rest.
Your answer must be one of the following: active, inactive

A selection of reference data follows.
O=c1c(/C=C/c2ccco2)nnc(SCCN2CCOCC2)n1/N=C/c1ccc([N+](=O)[O-])cc1
active
CN1CCN(Cc2ccc(NC(=O)c3[nH]ncc3Nc3ncnc4[nH]ccc34)cc2)CC1
active
Cc1cc(=O)oc2cc(Oc3nc(-c4ccc(Cl)cc4)cn4c(-c5ccc(Cl)cc5)cnc34)ccc12
inactive
CC1=C(NCCN2CCCC2)C(=O)c2c(OCc3cccc(Cl)c3)cccc2C1=O
inactive

Moving on to the next molecule.
Task: Give the logged outcome of this assay for the following molecule: Cn1cc(-c2ccc(-c3cn(C)c4ncccc34)[nH]2)c2cccnc21
Output: inactive
